Test system: Candida albicans ATCC-10231
Assay: in vitro MIC, agar streak method
Assay type: cell-based
Settings: ATCC10231; Candida albicans ATCC-10231; Sabouraud dextrose agar; read-out: MIC
Catalogue of MIC readings, one per entry.

# example entries with known answers
For COC(=O)C1c2cc3c(c(O)c2C(OC2CC(N(C)C)C(OC4CC(O)C(OC5CCC(O)C(C)O5)C(C)O4)C(C)O2)CC1(C)O)C(=O)c1c(O)cccc1C3=O (stereo not shown) the molecule record lists MIC as > 50 µg/mL

For COC(=O)C1c2cc3c(c(O)c2C(OC2CC(N(C)C)C(OC4CCC(OC5CCC(O)C(C)O5)C(C)O4)C(C)O2)CC1(C)O)C(=O)c1c(O)cccc1C3=O (stereo not shown) the molecule record lists MIC as > 50 µg/mL

For COC(=O)C1c2cc3c(c(O)c2C(OC2CC(N(C)C)C(O)C(C)O2)CC1(C)O)C(=O)c1c(O)cccc1C3=O (stereo not shown) the molecule record lists MIC as > 50 µg/mL

Next:
For COC(=O)C1c2cc3c(c(O)c2C(OC2CC(N(C)C)C(OC4CC(O)C(O)C(C)O4)C(C)O2)CC1(C)O)C(=O)c1c(O)cccc1C3=O (stereo not shown) the molecule record lists MIC as > 50 µg/mL

For COC(=O)C1c2cc3c(c(O)c2C(OC2CC(N(C)C)C(OC4CC(O)C(OC5CCC(O)C(C)O5)C(C)O4)C(C)O2)CC1(O)CC(C)=O)C(=O)c1c(O)cccc1C3=O (stereo not shown) the molecule record lists MIC as > 50 µg/mL

For COC(=O)C1c2cc3c(c(O)c2C(OC2CC(N(C)C)C(O)C(C)O2)CC1(O)CC(C)=O)C(=O)c1c(O)cccc1C3=O (stereo not shown) the molecule record lists MIC as > 50 µg/mL

For COC(=O)C1c2cc3c(c(O)c2C(OC2CC(N(C)C)C(OC4CC(O)C(O)C(C)O4)C(C)O2)CC1(O)CC(C)=O)C(=O)c1c(O)cccc1C3=O (stereo not shown) the molecule record lists MIC as > 50 µg/mL

====

Tested on: Sarcina lutea IAM1009
Experiment: in vitro MIC, agar streak method
Type: cell-based
Conditions: Micrococcus luteus, IAM1009, Sarcina lutea IAM-1009; Heart infusion agar; read-out: MIC
parameter: MIC (µg/mL)
The figure you give is taken to be in µg/mL; do not add the unit.

Tested on Sarcina lutea IAM1009: COC(=O)C1c2cc3c(c(O)c2C(OC2CC(N(C)C)C(OC4CC(O)C(O)C(C)O4)C(C)O2)CC1(O)CC(C)=O)C(=O)c1c(O)cccc1C3=O (stereo not drawn) . Observed MIC: 6.25

Tested on Sarcina lutea IAM1009: COC(=O)C1c2cc3c(c(O)c2C(OC2CC(N(C)C)C(O)C(C)O2)CC1(C)O)C(=O)c1c(O)cccc1C3=O (stereo not drawn) . Observed MIC: 6.25

Tested on Sarcina lutea IAM1009: COC(=O)C1c2cc3c(c(O)c2C(OC2CC(N(C)C)C(OC4CC(O)C(O)C(C)O4)C(C)O2)CC1(C)O)C(=O)c1c(O)cccc1C3=O (stereo not drawn) . Observed MIC: 6.25

====

Assay: in vivo
Conditions: mouse, ip, mice, single i.p. injection, judged 72 hours after, read-out: acute intraperitoneal LD50
Catalogue of LD50 at 72 h readings, one per entry.

# example entries with known answers
For COC(=O)C1c2cc3c(c(O)c2C(OC2CC(N(C)C)C(OC4CC(O)C(OC5CCC(O)C(C)O5)C(C)O4)C(C)O2)CC1(C)O)C(=O)c1c(O)cccc1C3=O (centres unmarked) the compound record lists LD50 at 72 h as 20 to 40 mg/kg

For COC(=O)C1c2cc3c(c(O)c2C(OC2CC(N(C)C)C(O)C(C)O2)CC1(O)CC(C)=O)C(=O)c1c(O)cccc1C3=O (centres unmarked) the compound record lists LD50 at 72 h as ~90 mg/kg

For COC(=O)C1c2cc3c(c(O)c2C(OC2CC(N(C)C)C(O)C(C)O2)CC1(C)O)C(=O)c1c(O)cccc1C3=O (centres unmarked) the compound record lists LD50 at 72 h as ~90 mg/kg

For COC(=O)C1c2cc3c(c(O)c2C(OC2CC(N(C)C)C(OC4CCC(OC5CCC(O)C(C)O5)C(C)O4)C(C)O2)CC1(O)CC(C)=O)C(=O)c1c(O)cccc1C3=O (centres unmarked) the compound record lists LD50 at 72 h as 40 to 80 mg/kg

For COC(=O)C1c2cc3c(c(O)c2C(OC2CC(N(C)C)C(OC4CC(O)C(O)C(C)O4)C(C)O2)CC1(C)O)C(=O)c1c(O)cccc1C3=O (centres unmarked) the compound record lists LD50 at 72 h as ~90 mg/kg

For COC(=O)C1c2cc3c(c(O)c2C(OC2CC(N(C)C)C(OC4CC(O)C(O)C(C)O4)C(C)O2)CC1(O)CC(C)=O)C(=O)c1c(O)cccc1C3=O (centres unmarked) the compound record lists LD50 at 72 h as ~90 mg/kg

For COC(=O)C1c2cc3c(c(O)c2C(OC2CC(N(C)C)C(OC4CC(O)C(OC5CCC(O)C(C)O5)C(C)O4)C(C)O2)CC1(O)CC(C)=O)C(=O)c1c(O)cccc1C3=O (centres unmarked) the compound record lists LD50 at 72 h as 20 to 40 mg/kg

Next:
For COC(=O)C1c2cc3c(c(O)c2C(OC2CC(N(C)C)C(OC4CCC(OC5CCC(O)C(C)O5)C(C)O4)C(C)O2)CC1(C)O)C(=O)c1c(O)cccc1C3=O (centres unmarked) the compound record lists LD50 at 72 h as 40 to 80 mg/kg
